Kindly supply the reported GI50 values for the records listed here.
# Tested on: RPMI-8226
# method: NCI tumour cell line growth inhibition, 48 h
Activity calls are given as the source filed them. Cut-off read from the data, not from the text of the source: active = GI50 up to about 1.1 µM and inactive = higher. Where a SMILES comes first, the peptide text is derived from it. The star is where a group is joined. Boc = CC(C)(C)OC(=O)*; tBu = CC(C)(C)*

CCC1(CC)C(=O)N(C(=O)c2ccccc2)N(C(=O)c2ccc(Cl)cc2)C1=O :: 20 µM (inactive)
CC(=O)NC(Cc1ccccc1)C(=S)N1CCCC1 (centres undefined) :: > 100 µM (inactive)
CSc1nc(NC2OC(COC(C)=O)C(OC(C)=O)C(OC(C)=O)C2OC(C)=O)c(-c2csc(N)n2)c(=O)n1C (centres undefined) :: > 100 µM (inactive)
CSc1nc(NC2OCC(OC(C)=O)C(OC(C)=O)C2OC(C)=O)c(/N=C(\C)C(C)=O)c(=O)[nH]1 (centres undefined) :: > 100 µM (inactive)

Would you mind listing GI50 for each of the following compounds?
1. C[C@H]1C2Cc3cc(N)ccc3[C@@]1(C)CCN2CCc1ccccc1
2. SC1CCCN(Cc2ccccc2)C1 (centres undefined)
3. CCOc1ccc(Nc2nc(N)nc(N)c2N=O)cc1
4. C[n+]1c2ccccc2cc2c(CNC(CCCNC(=N)N)C(=O)O)cccc21 (centres undefined)
5. COc1ccc(/C(Cl)=C(\CN(C)C)c2ccc(OC)c(OC)c2)cc1OC
6. O=C(O)c1ccc(C(=O)c2ccccc2C(=O)O)cc1C(=O)O
7. COc1ccccc1CNC(=O)[C@H](Cc1ccc(O)cn1)NC(C)=O

### Response
1: 33.6 µM (inactive); 2: 21.3 µM (inactive); 3: 47.4 µM (inactive); 4: 0.0682 µM (active); 5: > 100 µM (inactive); 6: > 100 µM (inactive); 7: > 100 µM (inactive)

Would you mind listing GI50 for each of the following compounds?
1. COc1ccc(/C=N/Nc2nc(=S)[nH]c3[nH]ncc23)cc1
2. NC(=O)NC1C(C(=O)O)N(Cc2ccccc2)C(=O)N1Cc1ccccc1 (centres undefined)
3. CCCCSC1=N/C(=C\c2ccco2)C(Cl)=N1
4. CC(OC(C)(C)C)C(NC(=O)C(N)CCCCNC(=O)OC(C)(C)C)C(=O)NC(Cc1ccccc1)C(=O)O (centres undefined) (H-Lys(Boc)-Thr(tBu)-Phe-OH; configuration not given here)
5. COc1cc(Oc2nc3ccccc3nc2C(=O)O)cc(OC)c1OC

### Response
1: 2.5 µM (inactive); 2: > 100 µM (inactive); 3: > 100 µM (inactive); 4: > 100 µM (inactive); 5: > 100 µM (inactive)

Would you mind listing GI50 for each of the following compounds?
1. CC(CN1CC(=O)NC(=O)C1)N1CC(=O)NC(=O)C1 (centres undefined) [RAZOXANE]
2. O=C(Nc1cccc([N+](=O)[O-])c1)C(=O)C(C(=O)c1ccccc1F)C1OC(=O)C2C=CC=CC21 (centres undefined)
3. COc1ccc2oc(OC)c(CC=C(C)C)c(=O)c2c1C
4. COc1ccc2c(c1OC)C(=O)N/C2=C\c1c(CCN(C)C)cc2c(c1OC)OCO2

### Response
254 µM (inactive)
23.8 µM (inactive)
> 100 µM (inactive)
> 100 µM (inactive)

Would you mind listing GI50 for each of the following compounds?
1. S=C(N/N=C(/c1ccccc1)c1ccccn1)N(Cc1ccccn1)Cc1ccccn1
2. CC1(C)C[C@H]2[C@H](O)C(CO)=C3C(=O)[C@@H](O)[C@]3(C)[C@H]2C1
3. O=[N+]([O-])C(/C(Cl)=C(/Cl)N1CCCCC1)=C1\NCCO1
4. O=c1c(-c2ccccc2)c(O)nc2[nH]c3ccccc3n12

### Response
["< 0.0302 µM (active)", "38.4 µM (inactive)", "> 100 µM (inactive)", "> 100 µM (inactive)"]

Would you mind listing GI50 for each of the following compounds?
1. O=C(O)c1cc(=O)c2c(OCC(O)COc3cccc4oc(C(=O)O)cc(=O)c34)cccc2o1
2. CC(=O)Oc1ccc2cc(-c3ccccc3OC(C)=O)c(=O)oc2c1
3. O=C(NC12CC3CCC1CC(C3)C2)[C@@H]1CCCN1C(=O)OCc1ccccc1 (some centres undefined)

### Response
1. > 70.1 µM (inactive)
2. 28.8 µM (inactive)
3. 36.5 µM (inactive)

Would you mind listing GI50 for each of the following compounds?
1. COC(=O)C(C)NP(=O)(N1CC1)N1CC1 (centres undefined)
2. COc1ccc(/C=C/C(=O)c2cc(OC)cc(OC)c2)cc1

### Response
["> 100 µM (inactive)", "0.646 µM (active)"]
